# Test system: NCI-H322M
# protocol.description: relative viability (nuclei count vs DMSO), 5 days (fraction); higher = more cells survive
# experimental.parameters: first compound 0.01581 µM
Kindly supply the reported relative viability values for the records listed here.

Example entries begin here.
molecule | target.or.test.system | relative viability
Nc1ccn([C@@H]2O[C@H](CO)[C@@H](O)[C@@H]2O)c(=O)n1 [Cytarabine] + Nc1ncn([C@H]2C[C@H](O)[C@@H](CO)O2)c(=O)n1 [Decitabine] (partner 2 µM) | NCI-H322M | 0.608
COc1cc2nccc(Oc3ccc(NC(=O)Nc4cc(C)on4)c(Cl)c3)c2cc1OC [Tivozanib] + COc1cccc2cc(-c3nc([C@H]4CC[C@H](C(=O)O)CC4)n4ncnc(N)c34)[nH]c12 [OSI-027] (partner 0.5 µM) | NCI-H322M | 0.603
Nc1ccn([C@@H]2O[C@H](CO)[C@@H](O)[C@@H]2O)c(=O)n1 [Cytarabine] + N=C(N)NC(=N)NCCc1ccccc1 [Phenformin] (partner 250 µM) | NCI-H322M | 0.614

Let us move to another entry and its relative viability.
Sample COc1cc2nccc(Oc3ccc(NC(=O)Nc4cc(C)on4)c(Cl)c3)c2cc1OC [Tivozanib] + CC1(C)CCC(c2ccc(Cl)cc2)=C(CN2CCN(c3ccc(C(=O)NS(=O)(=O)c4ccc(N[C@H](CCN5CCOCC5)CSc5ccccc5)c(S(=O)(=O)C(F)(F)F)c4)cc3)CC2)C1 [Navitoclax] (partner 0.5 µM) — what was its relative viability?
1.09

* * *

# Test system: NCI-H647
# protocol.description: relative viability (nuclei count vs DMSO), 5 days (fraction); higher = more cells survive
# experimental.parameters: first compound 5 µM
observation.type: relative viability

Provide relative viability for all items below, preserving their order.
1. O=C(O)CCCCC(CCSCc1ccccc1)SCc1ccccc1 (stereo not given) [CPI-613] + Cc1cc(Nc2cc(N3CCN(C)CC3)nc(Sc3ccc(NC(=O)C4CC4)cc3)n2)n[nH]1 [Tozasertib] (partner 0.1 µM)
2. O=C(O)CCCCC(CCSCc1ccccc1)SCc1ccccc1 (stereo not given) [CPI-613] + CC(=O)Nc1cccc(-n2c(=O)n(C3CC3)c(=O)c3c(Nc4ccc(I)cc4F)n(C)c(=O)c(C)c32)c1 [Trametinib] (partner 0.02 µM)
3. O=C(O)CCCCC(CCSCc1ccccc1)SCc1ccccc1 (stereo not given) [CPI-613] + Cc1nc(Nc2ncc(C(=O)Nc3c(C)cccc3Cl)s2)cc(N2CCN(CCO)CC2)n1 [Dasatinib] (partner 0.075 µM)
4. O=C(O)CCCCC(CCSCc1ccccc1)SCc1ccccc1 (stereo not given) [CPI-613] + Nc1ncn([C@H]2C[C@H](O)[C@@H](CO)O2)c(=O)n1 [Decitabine] (partner 2 µM)

1: 0.384; 2: 0.378; 3: 0.197; 4: 0.345

Fill blank: measured relative viability of the compound O=C(O)CCCCC(CCSCc1ccccc1)SCc1ccccc1 (stereo not given) [CPI-613] + C[C@]1(O)C[C@@H](c2nc(-c3ccc4ccc(-c5ccccc5)nc4c3)c3c(N)nccn32)C1 [Linsitinib] (partner 1 µM) is ____.
1.16

* * *

# Tested on: NCI-H2009
# protocol.description: relative viability (nuclei count vs DMSO), 5 days (fraction); higher = more cells survive
# experimental.parameters: first compound 1.265 µM
Please provide measured relative viability for the entries that follow.

// solved cases for relative viability follow
compound | relative viability
Cc1sc2c(c1C)C(c1ccc(Cl)cc1)=N[C@@H](CC(=O)OC(C)(C)C)c1nnc(C)n1-2 [JQ1] + CS(=O)(=O)CCNCc1ccc(-c2ccc3ncnc(Nc4ccc(OCc5cccc(F)c5)c(Cl)c4)c3c2)o1 [Lapatinib] (partner 2 µM) | 0.285
Cc1sc2c(c1C)C(c1ccc(Cl)cc1)=N[C@@H](CC(=O)OC(C)(C)C)c1nnc(C)n1-2 [JQ1] + COc1cc2c(Oc3ccc(NC(=O)C4(C(=O)Nc5ccc(F)cc5)CC4)cc3F)ccnc2cc1OCCCN1CCOCC1 [Foretinib] (partner 0.25 µM) | 0.413
Cc1sc2c(c1C)C(c1ccc(Cl)cc1)=N[C@@H](CC(=O)OC(C)(C)C)c1nnc(C)n1-2 [JQ1] + O=C(c1cc(Cc2n[nH]c(=O)c3ccccc23)ccc1F)N1CCN(C(=O)C2CC2)CC1 [Olaparib] (partner 8 µM) | 0.198

Count: 4. Required value per item: relative viability.
1. Cc1sc2c(c1C)C(c1ccc(Cl)cc1)=N[C@@H](CC(=O)OC(C)(C)C)c1nnc(C)n1-2 [JQ1] + C[C@]1(O)C[C@@H](c2nc(-c3ccc4ccc(-c5ccccc5)nc4c3)c3c(N)nccn32)C1 [Linsitinib] (partner 1 µM)
2. Cc1sc2c(c1C)C(c1ccc(Cl)cc1)=N[C@@H](CC(=O)OC(C)(C)C)c1nnc(C)n1-2 [JQ1] + Cc1nc(NC(=O)N2CCC[C@H]2C(N)=O)sc1-c1ccnc(C(C)(C)C(F)(F)F)c1 [Alpelisib] (partner 2 µM)
3. Cc1sc2c(c1C)C(c1ccc(Cl)cc1)=N[C@@H](CC(=O)OC(C)(C)C)c1nnc(C)n1-2 [JQ1] + Cc1cc(Nc2cc(N3CCN(C)CC3)nc(Sc3ccc(NC(=O)C4CC4)cc3)n2)n[nH]1 [Tozasertib] (partner 0.1 µM)
4. Cc1sc2c(c1C)C(c1ccc(Cl)cc1)=N[C@@H](CC(=O)OC(C)(C)C)c1nnc(C)n1-2 [JQ1] + COc1cccc2cc(-c3nc([C@H]4CC[C@H](C(=O)O)CC4)n4ncnc(N)c34)[nH]c12 [OSI-027] (partner 0.5 µM)

1. 0.279
2. 0.32
3. 0.199
4. 0.185
